Data credit: patent US20090017017A1

- TGT: T1, Rhesus D antigen (human, UniProt Q02161 2-417)
- T1 construct: whole, on cells; Presented on RhD(+) erythrocytes; also called RhD; RhD antigen
- T1 sequence (looked up): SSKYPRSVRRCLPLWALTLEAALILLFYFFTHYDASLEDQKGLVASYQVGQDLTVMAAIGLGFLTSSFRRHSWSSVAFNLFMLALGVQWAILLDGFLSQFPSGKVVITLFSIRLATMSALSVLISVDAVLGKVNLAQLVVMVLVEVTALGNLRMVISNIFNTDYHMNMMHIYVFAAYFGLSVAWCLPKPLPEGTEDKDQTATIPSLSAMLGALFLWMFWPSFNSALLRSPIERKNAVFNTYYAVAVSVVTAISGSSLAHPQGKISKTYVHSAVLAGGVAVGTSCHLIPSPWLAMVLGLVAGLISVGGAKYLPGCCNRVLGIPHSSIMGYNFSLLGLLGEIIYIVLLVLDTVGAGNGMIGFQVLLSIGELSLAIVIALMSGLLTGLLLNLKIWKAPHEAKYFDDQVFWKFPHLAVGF
- PROCEDURE_TEXT: agglutination assay, Fab periplasmic extract on RhD(+)/RhD(-) RBC mix
REPORTED_METRIC: binding result

Answered cases to consult:
>  <BINDER>
RhD243.109A05 (Fab, V domains shown, Tested as Fab in E. coli periplasmic extract (VH on human gamma 1 CH1, vector Em351)) VH: QVQLVESGGGVVQPGRSLRLSCAASGFTFSTYGMHWVRQAPGKGLEWVAVIWYDGSQKYYVDSVKGRFTISRDNSKNTLYLQMNSLRAEDTAVYYCAREVAVRGVIRYYYGMDVWGQGTTVTVSS VL: DIQLTQSPSSLAASVGDRVIITCRSGQGIRNYLNWYQQKPGKAPKLLIYAASFLQSGVPSRFSGSGSGTDFTLTISSLQPEDFATYNCQQSYSDPWTFGQGTKVEIKR

>  <RESULT>
binds

$$$$
>  <BINDER>
RhD294.119E10 (Fab, V domains shown, Tested as Fab in E. coli periplasmic extract (VH on human gamma 1 CH1, vector Em351)) VH: QVQLVESGGGVVQPGRSLRLSCAASGFSFSNYGMHWVRQAPGKGLEWVAVISYDGSEKYYADSVKGRFTISRDNSKKTLYLQMNSLRAEDTAMYYCKNKVGATRRAVVAVDIWGQGTMVTVSS VL: EIVLTQSPGTLSLSPRERATLSCRANQYVNSNHLAWYQQKPGQAPRLLLYGASRRATGIPDRFSGSGTGTDFTLIISRLEPEDFAVYFCQLYDHSRPMYTFGQGTKLEIKR

>  <RESULT>
binds

$$$$
>  <BINDER>
RhD207.127A11 (Fab, V domains shown, Tested as Fab in E. coli periplasmic extract (VH on human gamma 1 CH1, vector Em351)) VH: EVQLVESGGGVVQPGRSLRLSCAASGFTFSSYGMHWVRQAPGKGLEWVAVIWYDGSNKDYVDSVKGRFTISRDNSKNTLYLQMNSLRAEDTAVYYCARELAKGRLRDLDHWGQGTLVTVSS VL: QAVVTQEPSLTVSPGGTVTLTCASSTGAVTTGYYPNWFQQKPGQAPRALVHSTSKKHSWTPARFSGSLLGGKAALTLSGVQPEDEAEYYCLLFYGGAQLGVFGGGTKLTVLG

>  <RESULT>
binds

$$$$
>  <BINDER>
RhD297.126E06 (Fab, V domains shown, Tested as Fab in E. coli periplasmic extract (VH on human gamma 1 CH1, vector Em351)) VH: QVQLVESGGGVVQPGRSLRLSCAASGFTFRTYGMHWVRQAPGKGLEWVAVIWYDGSNKDYADSVKGRFTISRDNSKNTLHLQMNSLRAEDTAVYYCAREIASRGYSRYLYYLDFWGQGTLVTVSS VL: DIQLTQSPSSLSASVGDRVTITCRASQSISSYLNWYQQNPGKAPKLLIYGASNLQSGVPSRFSGSGSGTDFTLTISSLQPEDFATYYCQQSYSTLALTFGGGTKVEIKR

>  <RESULT>
binds

$$$$

Req: Entry RhD201.164H12 (Fab, V domains shown, Tested as Fab in E. coli periplasmic extract (VH on human gamma 1 CH1, vector Em351)) VH: QVQLVESGGGVVQPGRSLRLSCAASGFTFSSYAMHWVRQAPGKGLEWVAVISYDGSNKYYADSVKGRFTISRDNSKNTLYLQMNSLRAEDTAVYYCARESTLYSSSWYRRYYYYSMDVWGQGTTVTVSS VL: EIVLTQSPATLSVSPGERATLSCRASQSVTSNLAWYQQKPGQAPRLLIYGASTRATGVPARFSGSGSGTEFSLTISSLQSEDFAVYYCQQYNNWPPIFTFGPGTKLDIKR has what binding result?
Resp: binds

Req: Entry RhD160.119C07 (Fab, V domains shown, Tested as Fab in E. coli periplasmic extract (VH on human gamma 1 CH1, vector Em351)) VH: EVQLVESGGGVVQPGRSLRLSCAASGFTFSNYGMHWVRQAPGKGLEWVAVIWYDGSNRFYADSVKGRFTISRDNSKNTLYLQMNNLRAEDTALYSCAREITTTVVVRRHYLMDIWGQGTTVTVSS VL: DIQLTQSPSSLSASVGDRVSITCRASQGISNSLAWYQQKPGKVPKLLIYAASTLQSGVPSRFSGGGSGTDFTLTISSLQPEDVATYYCQKYNSAPFAFGPGTKVDIKR has what binding result?
Resp: binds

Req: Entry RhD246.179B10 (Fab, V domains shown, Tested as Fab in E. coli periplasmic extract (VH on human gamma 1 CH1, vector Em351)) VH: EVQLVETGGGVVQPGRSLRLSCAASGFTFSSYGMHWVRQAPGKGLEWVAVIWYDGSNKYYADSVKGRFTISRDNSKNTLYLQMNSLRAEDTAVYYCAREMVSYSSSWYRRYYYYNMDVWGKGTTVTVSS VL: LSSELTQDPAVSVTLGQTVRITCQGDSLRHSYASWYQQKPGQAPILVIYGKNIRPSGIPDRFSGSTSGNTASLTITGAQAEDGGDYYCNSRDTSTDHYVFGDGTRVTVVG has what binding result?
Resp: binds

Req: Entry RhD206.160C06 (Fab, V domains shown, Tested as Fab in E. coli periplasmic extract (VH on human gamma 1 CH1, vector Em351)) VH: QVQLVESGGGVVQPGRSLRLSCAASGFTFSSYGMHWVRQAPGKGLEWVAIIWFDGSNKYYADSVKGRFTISRDNSKNTLYLQINSLRAEDTAVYYCAKEHGYYSSSWYRNYYYYAMDVWGQGTTVTVSS VL: DIQMTQSPSSLSASVGDRVTITCRASQSIRRYLNWYQKKPGKAPKLLIYAASSLQSGVPSRFSGSGSGTDFTLTISSLQPEDFATYYCQQSYRTQGLTFGGGTKVEIKR has what binding result?
Resp: binds

Req: Entry RhD190.119F05 (Fab, V domains shown, Tested as Fab in E. coli periplasmic extract (VH on human gamma 1 CH1, vector Em351)) VH: EVQLVETGGGVVQPGRSLRLSCAASGFSFSNYGMHWVRQAPGKGLEWVAVIWFDGSIKYYVDSVKGRFTISRDNSKNTLYLQMNSLRAEETAIYFCARENSVLVPGTIRRRYYLDYWGQGTLVTVSS VL: DIQLTQSPSSLSASVGDRVTITCRASQSISSYLNWYQQKPGEAPKLLIYVASTLQSGAPSRFSGSGSGTDYTLTISSLQPEDSATFYCQQTYSPPYTFGQGTKLEIKR has what binding result?
Resp: binds

Req: Entry RhD205.160B12 (Fab, V domains shown, Tested as Fab in E. coli periplasmic extract (VH on human gamma 1 CH1, vector Em351)) VH: EVQLVETGGGLVKPGGSLRLSCAASGFTFRSYSMNWVRQAPGKGLEWVSSIGSSSTYTYSADSVKGRFTISRDNAKNSLYLQMNSLRAEDTAVYYCARGEPLNYDYIWGGYRFTIHWGQGTLVTVSS VL: DIQLTQSPSFLSASVGDRVTITCRASHGISSYLAWYQQKPGKAPNLLIFPASTLQSGVPSRFSGSGSGTEFTLTISSLRPEDFATYYCQQLNSYSRWAFGQGTKVEVKR has what binding result?
Resp: binds
